From: paper PMC9739877

- System: MT-4 cells
- assay-explanation: Cytotoxicity in mock-infected MT-4 cells, MTT assay
- Assay type: cell-based
- measurement-conditions: 50% reduction of viability of mock-infected MT-4 cells
Returns: string. Value is MET if measured CC50 is below 100 µM, and NOT MET if it is greater than or equal to it.

{"structure": "COc1ccc(N(C)C(=O)[C@H](Cc2ccccc2)NC(=O)CN2CCN(C(=O)Cc3c[nH]c4ccc(OC)cc34)CC2=O)cc1", "class": "NOT MET"}
{"structure": "COc1ccc(N(C)C(=O)[C@H](Cc2ccccc2)NC(=O)CN2CCN(C(=O)c3ccc(NC(=O)C4CC4)cc3)CC2=O)cc1", "class": "NOT MET"}
{"structure": "COc1ccc(N(C)C(=O)[C@H](Cc2cc(F)cc(F)c2)NC(=O)CN2CCN(C(=O)Cc3c[nH]c4ccc(F)cc34)CC2=O)cc1", "class": "MET"}

Exercise: Please let me know if COc1ccc(N(C)C(=O)[C@H](Cc2cc(F)cc(F)c2)NC(=O)CN2CCN(C(=O)Cc3c(C)[nH]c4ccccc34)CC2=O)cc1 shows CC50 below 100 µM.
Solution: MET

Exercise: Please let me know if COc1ccc(N(C)C(=O)[C@H](Cc2cc(F)cc(F)c2)NC(=O)CN2CCN(C(=O)c3ccc(NC(=O)C(F)(F)F)cc3)CC2=O)cc1 shows CC50 below 100 µM.
Solution: NOT MET

Exercise: Please let me know if COc1ccc(N(C)C(=O)[C@H](Cc2cc(F)cc(F)c2)NC(=O)CN2CCN(C(=O)Cc3c[nH]c4ccccc34)CC2=O)cc1 shows CC50 below 100 µM.
Solution: MET

Exercise: Please let me know if COc1ccc(N(C)C(=O)[C@H](Cc2cc(F)cc(F)c2)NC(=O)CN2CCN(C(=O)c3ccc(NC(C)=O)cc3)CC2=O)cc1 shows CC50 below 100 µM.
Solution: NOT MET

Exercise: Please let me know if COc1ccc(N(C)C(=O)[C@H](Cc2cc(F)cc(F)c2)NC(=O)CN2CCN(C(=O)c3ccc(NC(=O)C4CC4)cc3)CC2=O)cc1 shows CC50 below 100 µM.
Solution: MET

---

- System: HIV-2 (ROD)
- assay-explanation: Anti-HIV-2 (ROD) activity in MT-4 cells, MTT assay
- Type: cell-based
- measurement-conditions: Human immunodeficiency virus 2, MT4, 50% protection against HIV-induced cytotoxicity
pEC50: −log10 of the molar value.
assay-readout: pEC50

{"structure": "COc1ccc(N(C)C(=O)[C@H](Cc2cc(F)cc(F)c2)NC(=O)CN2CCN(C(=O)Cc3c[nH]c4ccc(OC)cc34)CC2=O)cc1", "pEC50": "< 4.80"}
{"structure": "COc1ccc(N(C)C(=O)[C@H](Cc2ccccc2)NC(=O)CN2CCN(C(=O)Cc3c[nH]c4ccc(Br)cc34)CC2=O)cc1", "pEC50": "< 4.79"}
{"structure": "COc1ccc(N(C)C(=O)[C@H](Cc2cc(F)cc(F)c2)NC(=O)CN2CCN(C(=O)Cc3c[nH]c4ccc(Br)cc34)CC2=O)cc1", "pEC50": "< 5.50"}

Now, please, on to the next molecule.
The value of pEC50 measured for the molecule COc1ccc(N(C)C(=O)[C@H](Cc2ccccc2)NC(=O)CN2CCN(C(=O)c3ccc(NS(C)(=O)=O)cc3)CC2=O)cc1 turned out to be < 3.70
